log10 EC50 overview
# SYSTEM UNDER TEST: TLR8 (Homo sapiens (Human), UniProt Q9NR97)
# Sequence (Q9NR97 27-1041): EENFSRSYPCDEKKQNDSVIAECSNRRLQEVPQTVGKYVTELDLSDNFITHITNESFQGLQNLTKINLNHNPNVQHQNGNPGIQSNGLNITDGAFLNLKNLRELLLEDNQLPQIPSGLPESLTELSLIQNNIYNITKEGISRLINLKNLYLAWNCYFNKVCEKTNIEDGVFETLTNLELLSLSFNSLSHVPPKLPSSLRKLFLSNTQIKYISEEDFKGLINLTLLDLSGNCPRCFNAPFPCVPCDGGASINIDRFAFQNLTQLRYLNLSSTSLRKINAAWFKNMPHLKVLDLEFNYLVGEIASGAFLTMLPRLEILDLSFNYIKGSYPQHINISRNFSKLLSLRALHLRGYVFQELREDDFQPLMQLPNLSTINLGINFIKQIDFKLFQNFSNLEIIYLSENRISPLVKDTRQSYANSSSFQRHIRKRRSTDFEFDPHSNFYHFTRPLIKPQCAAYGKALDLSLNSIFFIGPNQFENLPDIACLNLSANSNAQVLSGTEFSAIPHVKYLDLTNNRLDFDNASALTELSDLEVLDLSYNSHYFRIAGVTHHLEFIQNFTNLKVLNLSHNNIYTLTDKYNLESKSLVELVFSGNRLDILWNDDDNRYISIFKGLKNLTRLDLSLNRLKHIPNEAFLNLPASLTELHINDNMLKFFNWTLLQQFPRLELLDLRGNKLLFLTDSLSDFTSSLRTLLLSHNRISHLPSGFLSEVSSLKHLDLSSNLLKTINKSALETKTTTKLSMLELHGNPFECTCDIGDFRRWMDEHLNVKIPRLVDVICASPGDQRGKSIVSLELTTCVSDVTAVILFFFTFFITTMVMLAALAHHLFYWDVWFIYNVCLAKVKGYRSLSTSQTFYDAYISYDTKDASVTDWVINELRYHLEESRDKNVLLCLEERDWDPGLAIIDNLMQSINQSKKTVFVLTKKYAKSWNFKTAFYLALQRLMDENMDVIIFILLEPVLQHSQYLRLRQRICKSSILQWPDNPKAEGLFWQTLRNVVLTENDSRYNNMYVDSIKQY
# ASSAY DETAILS: TLR8 agonist bioactivity: induction of TNFα protein in monocyte cultures (ELISA, 24 h)
# Assay type: cell-based
# EXPERIMENTAL CONDITIONS: TNFα induction, human monocytes, 24 hours
# Description: Monocytes were magnetically isolated from PBMCs, prepared as described above, following labeling with CD14 microbeads (Miltenyi Biotec, San Diego Calif.), according to the manufacturer's instructions. […] Culture supernatants were collected and tumor necrosis factor alpha (TNFα) protein levels were measured by ELISA (MabTech, Cincinnati Ohio), according to the manufacturer's instructions.
Friendly reminder: values = log10 of EC50, unit nM.

Example entries begin here.
CCCCCCCCCCCCCCCCNCc1ccc(Cn2c(CCCC)nc3c(N)nc4ccccc4c32)cc1 [Compound No. 63-32, reference compound] :: 3.49
CCCCCCCCCCC(=O)NCc1ccc(Cn2c(CCCC)nc3c(N)nc4ccccc4c32)cc1 [Compound No. 63-07] :: 3.42
CCCCCCCCNCc1ccc(Cn2c(CCCC)nc3c(N)nc4ccccc4c32)cc1 [Compound No. 63-20] :: 3.09

Any idea what log10 EC50 was measured for CCCCCCCCCCCCC(=O)NCc1ccc(Cn2c(CCCC)nc3c(N)nc4ccccc4c32)cc1 [Compound No. 63-09] ?
2.99

Any idea what log10 EC50 was measured for CCCCc1nc2c(N)nc3ccccc3c2n1Cc1ccc(CNC(=O)CC2CC2)cc1 [Compound No. 63-34] ?
3.17

Any idea what log10 EC50 was measured for CCCCc1nc2c(N)nc3ccccc3c2n1Cc1ccc(CNCCC2CCCC2)cc1 [Compound No. 63-36] ?
2.07

Any idea what log10 EC50 was measured for CCCCCCNCc1ccc(Cn2c(CCCC)nc3c(N)nc4ccccc4c32)cc1 [Compound No. 63-18] ?
2.33

Any idea what log10 EC50 was measured for CCCCc1nc2c(N)nc3ccccc3c2n1Cc1ccc(CNCCC2CCC2)cc1 [Compound No. 63-35] ?
1.85

----------
# SYSTEM UNDER TEST: TLR8 (Homo sapiens (Human))
# ASSAY DETAILS: TLR8 agonist bioactivity: induction of TNFα protein in monocyte cultures (ELISA, 24 h)
# Format: cell-based
# EXPERIMENTAL CONDITIONS: EC50 expressed as percentage of EC50 of Compound No. 63-00
METRIC: TLR8 (% of Compound No. 63-00 EC50 Value) (%)
Hi! Could you send only the number? It should be in %, unit omitted.

Example entries begin here.
CCCCc1nc2c(N)nc3ccccc3c2n1Cc1ccc(CNCCCC2CC2)cc1 :: 77
CCCCc1nc2c(N)nc3ccccc3c2n1Cc1ccc(CNCC(C)(C)C2CC2)cc1 :: 43
CCCCc1nc2c(N)nc3ccccc3c2n1Cc1ccc(CNCC2CC2(C)C)cc1 (centres unmarked) :: 51
CCCCc1nc2c(N)nc3ccccc3c2n1Cc1ccc(CNCCC2CC2)cc1 :: 41
CCCCc1nc2c(N)nc3ccccc3c2n1Cc1ccc(CNCCC2(C)CC2)cc1 :: 85

Any idea what TLR8 (% of Compound No. 63-00 EC50 Value) was measured for CCCCc1nc2c(N)nc3ccccc3c2n1Cc1ccc(CNCC2CC2C)cc1 (centres unmarked) ?
48

Any idea what TLR8 (% of Compound No. 63-00 EC50 Value) was measured for CCCCc1nc2c(N)nc3ccccc3c2n1Cc1ccc(CNCC2CC(C)C2)cc1 (centres unmarked) ?
39

Any idea what TLR8 (% of Compound No. 63-00 EC50 Value) was measured for CCCCc1nc2c(N)nc3ccccc3c2n1Cc1ccc(CNCC2CCC2)cc1 ?
17

----------
# SYSTEM UNDER TEST: TLR8 (Homo sapiens (Human))
# ASSAY DETAILS: TLR8 agonist bioactivity: induction of TNFα protein in monocyte cultures (ELISA, 24 h)
# Assay type: cell-based
# EXPERIMENTAL CONDITIONS: TNFα induction, human monocytes, 24 hours
Lab note: cut-off is 800 nM. Strictly less in EC50 is MET. Exactly 800 nM or more is NOT MET.

Look over these answered cases.
CCCCCCCCCNCc1ccc(Cn2c(CCCC)nc3c(N)nc4ccccc4c32)cc1 [Compound No. 63-21] :: NOT MET
CCCCCCCNCc1ccc(Cn2c(CCCC)nc3c(N)nc4ccccc4c32)cc1 [Compound No. 63-19] :: MET
CCCCCCCCCCCCCC(=O)NCc1ccc(Cn2c(CCCC)nc3c(N)nc4ccccc4c32)cc1 [Compound No. 63-10] :: MET

# strict comparison: is reported EC50 < 800 nM? input = CCCCCCCCCCCCCCCC(=O)NCc1ccc(Cn2c(CCCC)nc3c(N)nc4ccccc4c32)cc1 [Compound No. 63-31, reference compound]
NOT MET

# strict comparison: is reported EC50 < 800 nM? input = CCCCc1nc2c(N)nc3ccccc3c2n1Cc1ccc(CNCCC2CC2)cc1 [Compound No. 63-33]
MET

# strict comparison: is reported EC50 < 800 nM? input = CCCCCCCCCC(=O)NCc1ccc(Cn2c(CCCC)nc3c(N)nc4ccccc4c32)cc1 [Compound No. 63-06]
NOT MET

----------
# SYSTEM UNDER TEST: TLR8 (Homo sapiens (Human), UniProt Q9NR97)
# ASSAY DETAILS: TLR8 agonist bioactivity: induction of TNFα protein in monocyte cultures (ELISA, 24 h)
# Type: cell-based
# EXPERIMENTAL CONDITIONS: more potent than IMDQ
fold increase of TLR8 agonist potency compared to Compound No. 63-00 (IMDQ) overview
Hi! Could you send only the number? It should be in fold, unit omitted.

Example entries begin here.
CCCCc1nc2c(N)nc3ccccc3c2n1Cc1ccc(CNCCC2CC2)cc1 :: 2.9
CCCCc1nc2c(N)nc3ccccc3c2n1Cc1ccc(CNCC2CCC2)cc1 :: 5.9

fold increase of TLR8 agonist potency compared to Compound No. 63-00 (IMDQ) of CCCCc1nc2c(N)nc3ccccc3c2n1Cc1ccc(CNCC2(C)CCC2)cc1 on TLR8 (Homo sapiens (Human), UniProt Q9NR97)?
7.7

----------
# SYSTEM UNDER TEST: TLR7 (Homo sapiens (Human), UniProt Q9NYK1)
# Sequence (Q9NYK1 27-1049): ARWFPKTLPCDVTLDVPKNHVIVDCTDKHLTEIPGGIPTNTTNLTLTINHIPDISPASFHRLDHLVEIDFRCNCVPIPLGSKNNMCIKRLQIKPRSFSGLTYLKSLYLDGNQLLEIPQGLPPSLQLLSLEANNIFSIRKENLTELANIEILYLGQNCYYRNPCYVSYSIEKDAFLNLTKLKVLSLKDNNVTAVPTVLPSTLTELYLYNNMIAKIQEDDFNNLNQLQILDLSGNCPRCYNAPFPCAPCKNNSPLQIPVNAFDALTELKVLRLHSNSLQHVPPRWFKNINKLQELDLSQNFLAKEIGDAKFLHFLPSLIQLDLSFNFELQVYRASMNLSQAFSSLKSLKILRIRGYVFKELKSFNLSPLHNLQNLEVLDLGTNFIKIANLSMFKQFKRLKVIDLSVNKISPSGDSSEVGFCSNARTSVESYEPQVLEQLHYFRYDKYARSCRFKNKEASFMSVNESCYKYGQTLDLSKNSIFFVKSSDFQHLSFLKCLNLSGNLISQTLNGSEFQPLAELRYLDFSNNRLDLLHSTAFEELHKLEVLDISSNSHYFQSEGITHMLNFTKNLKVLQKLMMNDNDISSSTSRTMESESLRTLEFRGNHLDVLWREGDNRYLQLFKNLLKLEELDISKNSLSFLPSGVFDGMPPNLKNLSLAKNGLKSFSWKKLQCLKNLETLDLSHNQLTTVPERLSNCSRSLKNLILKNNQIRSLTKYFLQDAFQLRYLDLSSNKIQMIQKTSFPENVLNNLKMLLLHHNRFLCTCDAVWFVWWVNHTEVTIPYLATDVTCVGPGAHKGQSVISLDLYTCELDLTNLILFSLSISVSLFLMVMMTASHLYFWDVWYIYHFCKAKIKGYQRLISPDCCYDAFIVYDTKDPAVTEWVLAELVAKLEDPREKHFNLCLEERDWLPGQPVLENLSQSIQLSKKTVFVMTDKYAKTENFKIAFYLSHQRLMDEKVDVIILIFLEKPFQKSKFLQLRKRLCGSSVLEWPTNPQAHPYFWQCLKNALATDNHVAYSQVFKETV
# ASSAY DETAILS: TLR7 agonist bioactivity: induction of IFNα protein in pDC-enriched PBMC cultures (ELISA, 24 h)
# Assay type: cell-based
# EXPERIMENTAL CONDITIONS: EC50 expressed as percentage of EC50 of Compound No. 63-00
METRIC: TLR7 (% of Compound No. 63-00 EC50 Value) (%)
Hi! Could you send only the number? It should be in %, unit omitted.

Example entries begin here.
CCCCc1nc2c(N)nc3ccccc3c2n1Cc1ccc(CNCC2CCC2)cc1 :: 120
CCCCc1nc2c(N)nc3ccccc3c2n1Cc1ccc(CNCC2CC2)cc1 :: 345
CCCCc1nc2c(N)nc3ccccc3c2n1Cc1ccc(CNCC(C)(C)C2CC2)cc1 :: 360
CCCCc1nc2c(N)nc3ccccc3c2n1Cc1ccc(CNCCC2(C)CC2)cc1 :: 445
CCCCc1nc2c(N)nc3ccccc3c2n1Cc1ccc(CNCCC2CC2)cc1 :: 290
CCCCc1nc2c(N)nc3ccccc3c2n1Cc1ccc(CNCC2CC(C)C2)cc1 (centres unmarked) :: 400

Please examine the following record next.
Any idea what TLR7 (% of Compound No. 63-00 EC50 Value) was measured for CCCCc1nc2c(N)nc3ccccc3c2n1Cc1ccc(CNCC2CC2(C)C)cc1 (centres unmarked) ?
215

----------
# SYSTEM UNDER TEST: TLR8 (Homo sapiens (Human))
# ASSAY DETAILS: TLR8 agonist bioactivity: induction of TNFα protein in monocyte cultures (ELISA, 24 h)
# Assay type: cell-based
# EXPERIMENTAL CONDITIONS: EC50 expressed as percentage of EC50 of Compound No. 63-00
TLR8 (% of Compound No. 63-00 EC50 Value) overview

CCCCc1nc2c(N)nc3ccccc3c2n1Cc1ccc(CNCC(C)(C)C2CCC2)cc1 [Compound No. 63-47] :: 108%
CCCCc1nc2c(N)nc3ccccc3c2n1Cc1ccc(CNCCC2CCCC2)cc1 [Compound No. 63-36] :: 72%
CCCCc1nc2c(N)nc3ccccc3c2n1Cc1ccc(CNCCC2CCC2)cc1 [Compound No. 63-35] :: 53%

Any idea what TLR8 (% of Compound No. 63-00 EC50 Value) was measured for CCCCc1nc2c(N)nc3ccccc3c2n1Cc1ccc(CNCC2CC2)cc1 [Compound No. 63-38] ?
37%

Any idea what TLR8 (% of Compound No. 63-00 EC50 Value) was measured for CCCCc1nc2c(N)nc3ccccc3c2n1Cc1ccc(CNCC2(C)CCC2)cc1 [Compound No. 63-45] ?
13%

Data provenance is patent US11124510B2.
